Test system: MS2 coat protein
Assay: apparent KD of MS2 coat protein; designed switch direction (-1 OFF switch, 1 ON switch): -1; higher = weaker reporter binding
Conditions: input ligand: FMN 200 uM
Category | rule: reported apparent KD of MS2 coat protein within range, see low (below 20 nM), moderate (20 nM to below 200 nM), high (200 nM or more)

chain	category_label
GACAGUCGAGGAUAUACGAUCGUGCUUCGGCACGUAAGAUCACAUGAGGAUCACCCAUGUAGAAGGCGACUGUC [Mod 6 - Jieux - Exclusion 2] (Eterna round: R97, puzzle: Exclusion 2)	high

Continue with the next sequence.
Using the reported apparent KD of MS2 coat protein, which band applies to AUAAUGUGAGGAUAUCAGUCGUACAGCCUCGGCUGUACGACUGAGAAGGCACAUGAGGAUCACCCAUGUGGUCA [E4/5-A2] (Eterna round: R97, puzzle: Exclusion 4) ?
moderate

* * *

Tested on: MS2 coat protein
Test: apparent KD of MS2 coat protein; designed switch direction (-1 OFF switch, 1 ON switch): -1; higher = weaker reporter binding
Conditions: input ligand: microRNA oligo, concentration not stated
Give apparent KD of MS2 coat protein for every item shown.
Numbers only, in nM.

Check out these entries, answers already filled in.
chain	unit_string	value_observed
ACAUGAGGAUCACCCAUGUCGAGUACAUGAGGAUCACCCAUGUAGGAUAUGGUUCGCUUUGCGUGCUAGAAGGAUAUGUGAUGA [salish99_ExNG3_r04_512] (Eterna round: R96, puzzle: Exclusion NG 3)	nM	229
CUAGCGUAUGUAGGAUAUCGGACUGUUUCAGUCUGAGAAGGACAUGAGGAUCACCCAUGUAUAGCUACGUGAGUAGCUCGCUAG [JL ENG1 3.94] (Eterna round: R96, puzzle: Exclusion NG 1)	nM	17.2
CCCAGUUACGGAGGAUAUUGUACAUGAGGAUCACCCAUGUAAUAAAUGAGGAUUUCGGGUGUCUACAAGAAGGCCGGGAUAGGC [Ostracism 18 - Jieux - Exclusion NG 2] (Eterna round: R96, puzzle: Exclusion NG 2)	nM	85.3
AGCGCCAUCGUGAGAUGGCGUAUUACAUGAGGAUCACCCAUGUAGGAUAUCGAUUGCUUUGCAGUCGAGAAGGGCAUGUCCCAG [JL ENG3 3.80 Mod J] (Eterna round: R96, puzzle: Exclusion NG 3)	nM	19.2
ACAUGUGUUGUAGGAUAUAGGACACAUGAGGAUCACCCAUGUGGAUUCAUGUCUAAGGAAGCGUCCUAGAAGGACGACAACAUG [Ex NG2 #26] (Eterna round: R96, puzzle: Exclusion NG 2)	nM	16.3
UGAGUGCUGCGAGGAUAUACAUGAGGAUCACCCAUGUUUUCCUGUGAGGCAUAGCCUCACAGGAUGUAGAAGGCGCAGUACUCU [Mat - Exclusion NG 2 - Mod of JL - D28] (Eterna round: R96, puzzle: Exclusion NG 2)	nM	8.03

Hello, I would appreciate it if you could give apparent KD of MS2 coat protein for each entry below.
1. CGGCAUGUAGAAGGAUAUCUGCACGUUUAGUGCAGAGAAGGUCUAACAUGAGGAUCACCCAUGUAGAUCAUUAACCGAUUAAUU [ENG1/8-A2] (Eterna round: R96, puzzle: Exclusion NG 1)
2. UAUUGCAAGUGAGGAUAUGACAUGAGGAUCACCCAUGUAAAGGGAGUUGGCUAUAUAGCAAGAUUUCAGAAGGCACUACUGUAU [JR_ExcNG2_Sub006] (Eterna round: R96, puzzle: Exclusion NG 2)
3. CUUUUGUGAGGAUAUUAGUAGUAAAUAAAUUAAAUUACUACUGAGAAGGCACAUGAGGAUCACCCAUGUUCCUC [salish99_ex4_r3_057] (Eterna round: R96, puzzle: Exclusion 4)

10.4
32.6
32.8

* * *

Test system: MS2 coat protein
Assay: apparent KD of MS2 coat protein; higher = weaker reporter binding
Details: Eterna round: R107; input ligand: none
What apparent KD of MS2 coat protein was measured for each of the following?
// unit must come after the numeric part

Worked cases, apparent KD of MS2 coat protein given:
chain	system_under_test	apparent KD of MS2 coat protein
GUACAUGAGGAUCACCCAUGUAUAGUUGAAGGAGCGACCAGAGGGUCAGGUAGGUCGCAGCACAUGGCGUAAACCCGUGUAUGCC [#1 Exclusion - Arginine A Attempt #23 (Inspired by Pi)]	MS2 coat protein	21 nM
UGUACCUAGUCGGCCGCCACUCAAUAAUGAGAGGAUCACCCUCAUAAACGAGUCAAAGACUCGAUGAGGACCGGGACUAGGUACU [Palindromic MS2 2 #AlternativeMS2 #Palindrome #StaticStem]	MS2 coat protein	53 nM
GAUUUUACAAAAGUAAAAUCAGUGGGUGAACGAGGACCGGUACGGCCGCCACUCGGACAUGAGGAUCACCCAUGUCCAUGUGAAA [AstrosExyTryA#21]	MS2 coat protein	15.7 nM
UAUAUAUAGGCGGCCGCCACUGAUUUUCAUAUAUAUAUAACAUGAGGAUCACCCAUGUAGAUAUACAGGACCGGGCCUAUAUAUA [aaaA]	MS2 coat protein	16.1 nM

Can you look up apparent KD of MS2 coat protein on MS2 coat protein for AGCUCGCAUCCUCAAAGCGUCAAAGACGCACGAGGACCGGUACGGCCGCCACUCGACCUGAGGAUCACCCUGGUCUAAGCGAGCA [TrypAX 9 #SwitchBubble #AlternativeMS2 #MS2Late #CuTurnoff] ?
36.2 nM

* * *

Tested on: MS2 coat protein
Test: apparent KD of MS2 coat protein; higher = weaker reporter binding
Settings: Eterna round: R107; input ligand: arginine 13.2 mM
Assign apparent KD of MS2 coat protein to each entry below.
Answers are plain numbers, in nM.

# annotated cases, reported apparent KD of MS2 coat protein shown
chain	endpoint	unit_string	value_observed
GUUAUAGACGGAAGGAGCGCGGCCACAUGAGGAUCACCCAUGUAUUGUGUUGGUAAUAGGUCGCAGGUAGGUCGCCGAUUAAUGA [Same State - Arginine B / A]	apparent KD of MS2 coat protein	nM	35.9
AUAACAUGAGGAUCACCCAUGUAAGCUGAAGGAGCGGACGAAAGUCCAGGUAGGUCGCAGCACUCCUUCAACAUGGGAGAGGGAG [(M1)-(M2)-(Arg1)-(Arg2)-(A)'-(M)'-(A)''_Design1]	apparent KD of MS2 coat protein	nM	39.9
AUAAUGGGUAUCGGAUUAUCAUGAUAUGAUACCAGAUACUUAGAUAUCCCUUGGCAGCAUGAGGACAUGAGGAUCACCCAUGUAU [#04 Exclusion-TheophyllineA]	apparent KD of MS2 coat protein	nM	32.1
AAGGACAUGAGGAUCACCCAUGUAGAGGAGCGAGGACCGGUACGGCCGCCACUCGGUGACAUUCGAUAAUGCCGAAUAAGACAUC [theeternabot_sameState_MS2_Trp_A_47]	apparent KD of MS2 coat protein	nM	26.8
ACAUGAGGAUCACCCAUGUCACGGCACGAUACCAGCUGAUGCGGUGGCCCUUGGCAGCGUGACGUUUGGUCCCGCGGAUGACACG [qsmullin]	apparent KD of MS2 coat protein	nM	86.4

For the 5 sequences below, give their apparent KD of MS2 coat protein values.
1. GGGACACCGGGAAGGAGCGCAUCCAAACCACACAUGAGGAUCACCCAUGUAUAAAUAUGCAUGCAGGUAGGUCGCCCGAUGUCUC [Anrearradi]
2. GCACCAGGUACGGAUACCAGCUGCCAUAGUUACAUGAGGAUCACCCAUGUGAUCUAUUGUAGCCCUUGGCAGCUGUACCUGGUGC [SSThB NP+V+V2 #5 Same Structure]
3. CGAGUAAGAACAAUCGAAUAACGGUUUUCGCGAGGACCGGUACGGCCGCCACUCGUGUGAUAUCACACAUGAGGAUCACCCAUGU [3'end-1]
4. GAAGCUCGCGAUGAUACCAGCUCGACUGAUAACAUGAGGAUCACCCAUGUUGUGCGCCCUAGCCCUUGGCAGCAUGACAUAUUCG [theeternabot_sameState_MS2_Theo_B_46]
5. GAUGAACUAUUCGAUACCAGACCACAUGAGGAUCACCCAUGUGUGUUUCGUCCUUAGCCGGUCCCUUGGCAGCGAAUAGUUUAUC [#28 Exclusion-TheophyllineB]

1. 60.9
2. 71.2
3. 61.3
4. 47.5
5. 25.8

Hello, I would appreciate it if you could give apparent KD of MS2 coat protein for each entry below.
1. UUUGAUAGGACAGAUACCAGCGUGUUGUAGAACAUGAGGAUCACCCAUGUAGUGAUCAAGCGCCCUUGGCAGCUGGUUUGUUAGG [7.L]
2. AACAGUUGGUCGGCCGCCACUACAUGAGGAUCACCCAUGUAGCGCGUUCUGCUCCAGGGCUCAUCUAGGACCGGGACACGAGUGU [Raa]

1. 184
2. 12.2
